- target_desc: squalene synthetase (Rattus norvegicus)
- Sequence (Q02769 1-416): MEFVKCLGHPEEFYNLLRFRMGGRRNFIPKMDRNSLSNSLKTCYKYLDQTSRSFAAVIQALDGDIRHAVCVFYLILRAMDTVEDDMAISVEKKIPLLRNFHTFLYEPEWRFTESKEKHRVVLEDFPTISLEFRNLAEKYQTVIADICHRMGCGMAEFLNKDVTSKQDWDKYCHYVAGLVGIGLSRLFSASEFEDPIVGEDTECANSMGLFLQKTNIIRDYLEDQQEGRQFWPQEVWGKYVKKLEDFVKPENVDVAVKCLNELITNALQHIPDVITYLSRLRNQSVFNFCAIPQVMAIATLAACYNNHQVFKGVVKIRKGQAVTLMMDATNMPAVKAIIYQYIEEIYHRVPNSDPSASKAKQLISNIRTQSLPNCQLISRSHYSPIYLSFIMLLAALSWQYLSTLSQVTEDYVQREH
Where a name gives a salt, the structure may show the parent alone.
measurement_label: pIC50
Quick note: pIC50 values are minus log10 of concentrations in mol/L.

[[record]]
compound = "CCN(C/C=C(\\C)CCC=C(C)C)CCCC(P(=O)(O)O)P(=O)(O)O [Example 44, disodium salt]"
measurement_label = "pIC50"
value_observed = 8.52

[[record]]
compound = "CC(C)=CCC/C(C)=C/CC/C(C)=C/CNC(P(=O)(O)O)P(=O)(O)O [Example 47, sodium salt]"
measurement_label = "pIC50"
value_observed = 8.70

[[record]]
compound = "C/C(=C\\CC(P(=O)(O)O)P(=O)(O)O)CC/C=C(\\C)c1ccccc1 [Example 21, disodium salt]"
measurement_label = "pIC50"
value_observed = 9.00


// moving on: another record for pIC50
input: For the compound shown here, CCOC(=O)C(C/C=C(\C)CC/C=C(\C)CCC=C(C)C)P(=O)(O)O (stereo not shown) [Example 31] , give the reported pIC50.
output: 5.03

###

- target_desc: squalene synthetase (Rattus norvegicus, UniProt Q02769)
Structures can show the parent of a compound that is named as a salt.
measurement_label: IC50 (nM)
Field: numeric (nM). Do not append units.

Examples with their reported IC50 follow.
[[record]]
molecule = "C/C(=C\\CN(C)CCCC(P(=O)(O)O)P(=O)(O)O)CC/C=C(\\C)c1ccccc1 [Example 23, disodium salt]"
measurement_label = "IC50"
value_observed = 0.5

[[record]]
molecule = "CC(C)=CCC/C(C)=C/CC(P(=O)(O)O)P(=O)(O)O [Example 15, disodium salt]"
measurement_label = "IC50"
value_observed = 300

[[record]]
molecule = "C/C(=C\\CC(P(=O)(O)O)P(=O)(O)O)CC/C=C/c1ccccc1 [Example 22, disodium salt]"
measurement_label = "IC50"
value_observed = 1

[[record]]
molecule = "CC(C)=CCC/C(C)=C/CC/C(C)=C/CN(C)C(P(=O)(O)O)P(=O)(O)O [Example 48, disodium salt]"
measurement_label = "IC50"
value_observed = 1

[[record]]
molecule = "CC(C)=CCC/C(C)=C/CC/C(C)=C/CN(C)CCCCC(P(=O)(O)O)P(=O)(O)O [Example 49, disodium salt]"
measurement_label = "IC50"
value_observed = 2


input: Test system squalene synthetase (Rattus norvegicus, UniProt Q02769); read-out IC50; what value for CC(C)=CCC/C(C)=C/CC/C(C)=C/CCC(P(=O)(O)O)P(=O)(O)O [Example 14, disodium salt] ?
output: 5

input: Hello, I am looking for reported IC50 with squalene synthetase (Rattus norvegicus, UniProt Q02769) for CC(C)=CCC/C(C)=C/CCC(C)N(C)CCCCC(P(=O)(O)O)P(=O)(O)O (stereo not shown) [Example 46, disodium salt] . Could you help?
output: 2

###

- target_desc: squalene synthetase (Rattus norvegicus, UniProt Q02769)
- Sequence (Q02769 1-416): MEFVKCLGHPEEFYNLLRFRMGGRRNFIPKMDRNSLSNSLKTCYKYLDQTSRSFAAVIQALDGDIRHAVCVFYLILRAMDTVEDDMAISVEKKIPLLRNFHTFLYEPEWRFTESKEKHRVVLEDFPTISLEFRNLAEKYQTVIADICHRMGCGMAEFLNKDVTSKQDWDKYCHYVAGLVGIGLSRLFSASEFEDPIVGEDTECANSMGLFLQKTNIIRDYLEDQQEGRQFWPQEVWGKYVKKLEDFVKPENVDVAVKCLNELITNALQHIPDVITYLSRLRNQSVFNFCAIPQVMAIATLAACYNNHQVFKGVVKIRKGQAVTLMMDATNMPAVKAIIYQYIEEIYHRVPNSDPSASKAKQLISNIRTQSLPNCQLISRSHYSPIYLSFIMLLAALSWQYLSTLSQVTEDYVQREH
Where a name gives a salt, the structure may show the parent alone.
Labelling: IC50 reported below 3 nM becomes MET; at or above becomes NOT MET.

Solved cases below.
[[record]]
molecule = "CC(C)=CCC/C(C)=C/CC/C(C)=C/CN(C)CCCC(C(=O)O)P(=O)(O)O (stereo not shown) [Example 35]"
target_desc = "squalene synthetase (Rattus norvegicus, UniProt Q02769)"
assigned_label = "NOT MET"

[[record]]
molecule = "CCOP(=O)(O)C(CC/C=C(\\C)CC/C=C(\\C)CCC=C(C)C)C(=O)O (stereo not shown) [Example 29]"
target_desc = "squalene synthetase (Rattus norvegicus, UniProt Q02769)"
assigned_label = "NOT MET"

[[record]]
molecule = "CC(C)=CCC/C(C)=C/CC/C(C)=C/CN(C)CCCC(P(=O)(O)O)P(=O)(O)O [Example 17, disodium salt]"
target_desc = "squalene synthetase (Rattus norvegicus, UniProt Q02769)"
assigned_label = "MET"


input: Problem: For the molecule CC(C)=CCC/C(C)=C/CC/C(C)=C/CC/C(C)=C/CC(P(=O)(O)O)P(=O)(O)O [Example 16, disodium salt] , is IC50 under 3 nM?
output: NOT MET

###

- target_desc: squalene synthetase (Rattus norvegicus)
- Sequence (Q02769 1-416): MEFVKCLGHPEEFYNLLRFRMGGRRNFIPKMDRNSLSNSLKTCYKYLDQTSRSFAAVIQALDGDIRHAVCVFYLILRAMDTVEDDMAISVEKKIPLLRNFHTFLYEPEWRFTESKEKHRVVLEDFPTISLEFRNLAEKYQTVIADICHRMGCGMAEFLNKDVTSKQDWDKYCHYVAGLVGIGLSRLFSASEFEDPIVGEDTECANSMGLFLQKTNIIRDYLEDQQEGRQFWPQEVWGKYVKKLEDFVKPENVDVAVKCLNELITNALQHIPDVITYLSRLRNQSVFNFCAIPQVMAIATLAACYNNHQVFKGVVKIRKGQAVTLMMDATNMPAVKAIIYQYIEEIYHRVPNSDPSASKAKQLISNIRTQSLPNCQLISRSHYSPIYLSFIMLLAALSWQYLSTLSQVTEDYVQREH
Where a name gives a salt, the structure may show the parent alone.
Parameter IC50: see the listing below.
Numeric only. Scale: nM

Use the examples below as a reference point.
[[record]]
compound = "C/C(=C\\CC/C(C)=C/CC(P(=O)(O)O)P(=O)(O)O)CC/C=C/c1ccccc1 [Example 20, disodium salt]"
measurement_label = "IC50"
unit_abbreviation = "nM"
value_observed = 2

[[record]]
compound = "CCOP(=O)(O)C(C/C=C/C=C(\\C)CC/C=C(\\C)CCC=C(C)C)C(=O)O (stereo not shown) [Example 30]"
measurement_label = "IC50"
unit_abbreviation = "nM"
value_observed = 7100

[[record]]
compound = "CC(C)=CCC/C(C)=C/CNCCCC(P(=O)(O)O)P(=O)(O)O [Example 45, disodium salt]"
measurement_label = "IC50"
unit_abbreviation = "nM"
value_observed = 3


Moving on to the next compound.
input: State the recorded IC50 for this entry: CC(C)=CCC/C(C)=C/CCN(C)CCCC(P(=O)(O)O)P(=O)(O)O [Example 19, disodium salt]
output: 1

###

Measured pIC50 by item
- target_desc: squalene synthetase (Rattus norvegicus, UniProt Q02769)
- Sequence (Q02769 1-416): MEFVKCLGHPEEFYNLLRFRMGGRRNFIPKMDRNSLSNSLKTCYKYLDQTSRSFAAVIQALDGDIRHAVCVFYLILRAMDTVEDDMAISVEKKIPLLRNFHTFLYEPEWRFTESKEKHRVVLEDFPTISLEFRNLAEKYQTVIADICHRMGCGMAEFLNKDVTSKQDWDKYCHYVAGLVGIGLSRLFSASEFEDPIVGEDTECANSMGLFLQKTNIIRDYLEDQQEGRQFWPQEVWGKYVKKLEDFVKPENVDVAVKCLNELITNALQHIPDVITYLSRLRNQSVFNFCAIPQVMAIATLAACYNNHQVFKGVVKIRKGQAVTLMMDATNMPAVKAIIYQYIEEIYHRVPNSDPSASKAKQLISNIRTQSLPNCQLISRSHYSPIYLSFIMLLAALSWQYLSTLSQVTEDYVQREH
Where a name gives a salt, the structure may show the parent alone.
Interpret pIC50 as the negative base-10 log of the concentration measured in mol/L.

[[record]]
compound = "CC(C)=CCC/C(C)=C/CC/C(C)=C/CC(P(=O)(O)O)P(=O)(O)O [Example 13, disodium salt]"
target_desc = "squalene synthetase (Rattus norvegicus, UniProt Q02769)"
value_observed = 8.52

[[record]]
compound = "CC(C)=CCC/C(C)=C/CCC(C)N(C)CCCC(P(=O)(O)O)P(=O)(O)O (stereo not drawn) [Example 18, disodium salt]"
target_desc = "squalene synthetase (Rattus norvegicus, UniProt Q02769)"
value_observed = 8.52


Turning now to a further compound:
input: Suppose we examine the compound CC(C)=CCC/C(C)=C/CN(C)CCCC(P(=O)(O)O)P(=O)(O)O [Example 43, disodium salt] ; what pIC50 value has been reported?
output: 8.52
